- Tested on: Saccharomyces cerevisiae BY4741 SeMeCo community
- protocolDescription: z-score of subpopulation abundance vs DMSO median, subpopulation auxotrophic for HLM; higher = larger share of this subpopulation than in DMSO controls
- measurementSetup: 10 µM; 24 h; SM minimal medium; subpopulation (auxotrophy): HLM
Counter-ions that a name gives are not always drawn.
Each item that follows carries a reported z-score of subpopulation abundance.

// worked examples, z-score of subpopulation abundance included
molecule: Cc1nc2n(c(=O)c1CCN1CCC(c3noc4cc(F)ccc34)CC1)CCCC2
z-score of subpopulation abundance: 0.11
//
molecule: C=C1CCN([C@H](C)[C@](O)(Cn2cncn2)c2ccc(F)cc2F)CC1
z-score of subpopulation abundance: 10.7
//
molecule: CCN(Cc1ccncc1)C(=O)C(CO)c1ccccc1 (centres undefined) [Tropicamide]
z-score of subpopulation abundance: -0.45
//
molecule: CCOC(=O)c1ccc(N)cc1 [Benzocaine hydrochloride]
z-score of subpopulation abundance: -0.46
//
molecule: NCc1ccccc1CC(=O)N[C@@H]1C(=O)N2C(C(=O)O)=C(CSc3nnnn3CC(=O)O)CS[C@H]12 [Ceforanide]
z-score of subpopulation abundance: 0.46
//
molecule: C[C@]12CC[C@@H]3c4ccc(O)cc4CC[C@H]3[C@@H]1CC[C@@H]2OC(=O)CCC1CCCC1 [Estradiol Cypionate]
z-score of subpopulation abundance: 0.33

Task: I have this molecule here, C[C@](N)(Cc1ccc(O)c(O)c1)C(=O)O , and I need its recorded z-score of subpopulation abundance.
Output: -0.36

Task: I have this molecule here, CNCC[C@H](Oc1cccc2ccccc12)c1cccs1 [Duloxetine HCl] , and I need its recorded z-score of subpopulation abundance.
Output: -0.84

Task: I have this molecule here, O=C(O)c1cccnc1Nc1cccc(C(F)(F)F)c1 , and I need its recorded z-score of subpopulation abundance.
Output: 0.59
